tested on: L. sp. Branson; assay: Cryopreservation success rate after dormancy induction in sugar-supplemented medium; type: in vivo; settings: first set of experiments; single sugars 90 mg/ml unless the label says 20 mg/ml, six sugar combo 15 mg/ml each; in Schenk and Hildebrandt media during dormancy induction
Provide the reported Cryopreservation success rate of each item.

Record excerpt, results attached:
IN: Can you share its Cryopreservation success rate? I mean this molecule: OC[C@H]1O[C@H](OC[C@H]2O[C@H](O[C@]3(CO)O[C@H](CO)[C@@H](O)[C@@H]3O)[C@H](O)[C@@H](O)[C@@H]2O)[C@H](O)[C@@H](O)[C@H]1O
OUT: 100% (23/23)

IN: Next: OC[C@H]1O[C@H](O[C@H]2O[C@H](CO)[C@@H](O)[C@H](O)[C@H]2O)[C@H](O)[C@@H](O)[C@@H]1O
OUT: 100% (20/20)

IN: What about OC[C@H]1O[C@@](CO)(O[C@H]2O[C@H](CO)[C@@H](O)[C@H](O)[C@H]2O)[C@@H](O)[C@@H]1O ?
OUT: 100% (23/23)

IN: Now the molecule OC[C@@H](O)[C@@H](O)[C@H](O)[C@@H](O)CO
OUT: 27.3% (6/22)

IN: Then this molecule: OC[C@@H](O)[C@@H](O)[C@H](O)[C@H](O)CO
OUT: 33.3% (6/18)

Continuing:
IN: Give the measured Cryopreservation success rate of O=C[C@H](O)[C@@H](O)[C@H](O)[C@H](O)CO .
OUT: 88.5% (23/26)

###

system: L. yungensis; test: Cryopreservation success rate after dormancy induction in sugar-supplemented medium; assay type: in vivo, Lemna yungensis; conditions: second set of experiments; single sugars 90 mg/ml unless the label says 20 mg/ml, six sugar combo 15 mg/ml each
OBSERVABLE: Cryopreservation success rate
Please give the number followed by its unit.

IN: Dear colleague, I am looking for the recorded Cryopreservation success rate of the following molecule: OC[C@H]1O[C@H](O[C@H]2O[C@H](CO)[C@@H](O)[C@H](O)[C@H]2O)[C@H](O)[C@@H](O)[C@@H]1O
OUT: 0%

IN: // same read-out, input: O=C[C@H](O)[C@@H](O)[C@H](O)[C@H](O)CO
OUT: 0%

IN: Param item: OC[C@H]1O[C@H](OC[C@H]2O[C@H](O[C@]3(CO)O[C@H](CO)[C@@H](O)[C@@H]3O)[C@H](O)[C@@H](O)[C@@H]2O)[C@H](O)[C@@H](O)[C@H]1O
OUT: 0%

Shift focus to the following entry.
IN: For OC[C@H]1O[C@@](CO)(O[C@H]2O[C@H](CO)[C@@H](O)[C@H](O)[C@H]2O)[C@@H](O)[C@@H]1O , what is its reported Cryopreservation success rate?
OUT: 0%

###

Provide the reported Cryopreservation success rate of each item.
test system: Sp. polyrrhiza; test: Cryopreservation success rate after dormancy induction in sugar-supplemented medium; format: in vivo, Spirodela polyrrhiza; conditions: second set of experiments; single sugars 90 mg/ml unless the label says 20 mg/ml, six sugar combo 15 mg/ml each

For every record below, what is its Cryopreservation success rate?
1. OC[C@@H](O)[C@@H](O)[C@H](O)[C@@H](O)CO
2. OC[C@@H](O)[C@@H](O)[C@H](O)[C@H](O)CO
3. OC[C@H]1O[C@H](OC[C@H]2O[C@H](O[C@]3(CO)O[C@H](CO)[C@@H](O)[C@@H]3O)[C@H](O)[C@@H](O)[C@@H]2O)[C@H](O)[C@@H](O)[C@H]1O
4. OC[C@H]1O[C@@](CO)(O[C@H]2O[C@H](CO)[C@@H](O)[C@H](O)[C@H]2O)[C@@H](O)[C@@H]1O

OUT:
1. 25% (1/4)
2. 57.1% (4/7)
3. 0% (0/12)
4. 0% (0/12)

Go through the items and report each one's Cryopreservation success rate.
1. O=C[C@H](O)[C@@H](O)[C@H](O)[C@H](O)CO
2. OC[C@H]1O[C@H](O[C@H]2O[C@H](CO)[C@@H](O)[C@H](O)[C@H]2O)[C@H](O)[C@@H](O)[C@@H]1O

OUT:
1: 0% (0/4); 2: 0% (0/15)
